// reported OD450 at 0.11 nM for each item listed
Molecular target: biotinylated labeled human GPC3 protein (produced in-house) (human, UniProt P51654 25-559, limits assumed, biotinylated (Dojindo, Cat. No. LK03); sites not stated)
Test: ELISA, biotinylated human GPC3 protein
Report as a plain number; the unit OD450 is understood.

INSERT INTO results (binder, quantity_name, test_value) VALUES
  ('hAb007LH2L1a (antibody, human IgG1, V domains shown, Humanized F3.81.19; VH H2 + VL L1a; expressed as human IgG1) VH: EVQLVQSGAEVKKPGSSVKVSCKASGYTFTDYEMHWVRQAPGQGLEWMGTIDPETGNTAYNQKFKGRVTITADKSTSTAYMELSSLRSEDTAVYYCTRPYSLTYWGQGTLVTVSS VL: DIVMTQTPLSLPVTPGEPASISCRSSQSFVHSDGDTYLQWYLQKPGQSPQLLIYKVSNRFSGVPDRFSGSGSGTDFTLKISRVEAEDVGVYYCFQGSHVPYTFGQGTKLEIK', 'OD450 at 0.11 nM', 0.491);

Return reported OD450 at 0.11 nM. Input binder: hAb006LH3L1b (antibody, human IgG1, V domains shown, Humanized F3.38.7; VH H3 + VL L1b; expressed as human IgG1) VH: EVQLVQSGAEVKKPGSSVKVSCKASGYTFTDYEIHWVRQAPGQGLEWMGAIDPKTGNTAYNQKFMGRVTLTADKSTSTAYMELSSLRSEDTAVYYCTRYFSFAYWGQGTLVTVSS VL: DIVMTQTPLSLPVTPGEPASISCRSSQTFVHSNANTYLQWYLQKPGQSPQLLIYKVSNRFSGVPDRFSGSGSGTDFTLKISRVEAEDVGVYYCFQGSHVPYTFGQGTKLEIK
1.93
